Data provenance is the supplement of paper PMC10567573.

B1: UBE2R2 (parent)
chain: DPQSGELPSERWNPTQNVRTILLS

Variants of: B1
Assay: protein stability index of a GFP-peptide fusion (GPS, HEK-293T) (PSI 1-6); higher = more stable;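 further: lentivirally expressed fusions sorted by FACS into six bins by GFP to DsRed ratio, PSI derived from sequencing read proportions per bin multiplied by bin number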
Conditions: c terminus: a fixed tail appended
measured parameter: protein stability index

[
  {
    "variant notation": "P2F",
    "measured parameter": "protein stability index",
    "value measured": 2.81
  },
  {
    "variant notation": "G5N",
    "measured parameter": "protein stability index",
    "value measured": 3.96
  },
  {
    "variant notation": "D1I",
    "measured parameter": "protein stability index",
    "value measured": 2.67
  },
  {
    "variant notation": "Q16A",
    "measured parameter": "protein stability index",
    "value measured": 3.67
  },
  {
    "variant notation": "N17I",
    "measured parameter": "protein stability index",
    "value measured": 2.24
  },
  {
    "variant notation": "E6Q",
    "measured parameter": "protein stability index",
    "value measured": 3.49
  },
  {
    "variant notation": "P8M",
    "measured parameter": "protein stability index",
    "value measured": 3.66
  },
  {
    "variant notation": "L7N",
    "measured parameter": "protein stability index",
    "value measured": 4.11
  },
  {
    "variant notation": "N17V",
    "measured parameter": "protein stability index",
    "value measured": 2.4
  },
  {
    "variant notation": "R19T",
    "measured parameter": "protein stability index",
    "value measured": 3.21
  },
  {
    "variant notation": "Q3K",
    "measured parameter": "protein stability index",
    "value measured": 3.06
  },
  {
    "variant notation": "L22G",
    "measured parameter": "protein stability index",
    "value measured": 4.5
  },
  {
    "variant notation": "P8T",
    "measured parameter": "protein stability index",
    "value measured": 3.06
  },
  {
    "variant notation": "W12M",
    "measured parameter": "protein stability index",
    "value measured": 4.1
  }
]
